# EXPERIMENTAL TARGET: Human serotonin 5-HT6 receptor (Homo sapiens)
# Construct: made in house; host or cells: insect Sf21 cells (baculovirus vector BacPAK8)
# Sequence (P50406 whole entry): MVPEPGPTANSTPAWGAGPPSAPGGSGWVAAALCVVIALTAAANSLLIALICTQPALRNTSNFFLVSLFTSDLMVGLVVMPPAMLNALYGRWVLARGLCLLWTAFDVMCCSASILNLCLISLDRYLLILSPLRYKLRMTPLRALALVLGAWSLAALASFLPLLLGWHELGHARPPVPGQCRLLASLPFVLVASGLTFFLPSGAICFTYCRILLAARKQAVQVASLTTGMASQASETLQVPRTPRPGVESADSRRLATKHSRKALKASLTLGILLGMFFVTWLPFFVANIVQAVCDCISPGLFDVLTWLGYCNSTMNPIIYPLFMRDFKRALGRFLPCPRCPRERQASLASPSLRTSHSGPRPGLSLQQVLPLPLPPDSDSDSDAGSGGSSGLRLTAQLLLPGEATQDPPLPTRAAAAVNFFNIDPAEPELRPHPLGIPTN
# ASSAY REMARKS: [3H]LSD binding assay on cloned 5-HT6 receptor membranes
# STUDY CONDITIONS: Table 4; read-out: Binding affinity, IC50 (nM) 5-HT6

{"COMPOUND": "CC1(c2ccc(O)cc2)C(=O)c2c(N3CCNCC3)cc(Cl)cc2N(Cc2cccc([N+](=O)[O-])c2)C1=O (stereo not drawn) [Example 24]", "IC50 [nM]": 14.5}
{"COMPOUND": "CN1CCN(c2cc(Cl)cc3c2C(=O)C(C)(c2ccc(O)cc2)C(=O)N3Cc2cccc([N+](=O)[O-])c2)CC1 (stereo not drawn) [Example 8]", "IC50 [nM]": 16.8}
{"COMPOUND": "CC1(c2ccc(O)cc2)C(=O)c2c(N3CCNCC3)cc(Cl)cc2N(CC2CCCCC2)C1=O (stereo not drawn) [Example 49]", "IC50 [nM]": 17.5}
{"COMPOUND": "CCN1C(=O)C(C)(c2ccc(OC)cc2)C(=O)c2c(N3CCNCC3)cc(Cl)cc21 (stereo not drawn) [Example 46]", "IC50 [nM]": 15.8}
{"COMPOUND": "CC1(c2ccc(O)cc2)C(=O)c2c(N3CCNCC3)cc(Cl)cc2N(Cc2cccc(N)c2)C1=O (stereo not drawn) [Example 26]", "IC50 [nM]": 19}
{"COMPOUND": "COc1ccc(C2(C)C(=O)c3c(N4CCNCC4)cc(Cl)cc3N(Cc3cccc([N+](=O)[O-])c3)C2=O)cc1 (stereo not drawn) [Example 23]", "IC50 [nM]": 16.7}
{"COMPOUND": "COc1ccc(C2(C)C(=O)c3c(N4CCN(C)CC4)cc(Cl)cc3N(Cc3cccc(N)c3)C2=O)cc1 (stereo not drawn) [Example 9]", "IC50 [nM]": 5.2}
{"COMPOUND": "COc1ccc(C2(C)C(=O)c3c(N4CCNCC4)cc(Cl)cc3N(Cc3ccc4ccccc4n3)C2=O)cc1 (stereo not drawn) [Example 44]", "IC50 [nM]": 19}
{"COMPOUND": "CC1(c2ccc(O)cc2)C(=O)c2c(N3CCNCC3)cc(Cl)cc2N(Cc2ccccc2O)C1=O (stereo not drawn) [Example 30]", "IC50 [nM]": 18.1}
{"COMPOUND": "COc1ccc(C2(C)C(=O)c3c(N4CCNCC4)cc(Cl)cc3N(Cc3cccc(Br)c3)C2=O)cc1 (stereo not drawn) [Example 33]", "IC50 [nM]": 1.8}
{"COMPOUND": "CC1(c2ccc(Br)cc2)C(=O)c2c(N3CCNCC3)cc(Cl)cc2N(Cc2ccccc2)C1=O (stereo not drawn) [Example 20]", "IC50 [nM]": 18.2}
{"COMPOUND": "COc1ccc(C2(C)C(=O)c3c(N4CCNCC4)cc(Cl)cc3N(Cc3cccnc3)C2=O)cc1 (stereo not drawn) [Example 37]", "IC50 [nM]": 19.8}
{"COMPOUND": "CN1CCN(c2cc(Cl)cc3c2C(=O)[C@@](C)(c2ccc(N)cc2)C(=O)N3Cc2ccccc2)CC1 (stereo in doubt) [Example 4]", "IC50 [nM]": 15}
{"COMPOUND": "CN1CCN(c2cc(Cl)cc3c2C(=O)C(C)(c2ccc(OCc4ccccc4)c(Br)c2)C(=O)N3Cc2ccccc2)CC1 (stereo not drawn) [Example 12]", "IC50 [nM]": 9.2}
{"COMPOUND": "COc1ccc(C2(C)C(=O)c3c(N4CCNCC4)cc(Cl)cc3N(Cc3nc4ccccc4[nH]3)C2=O)cc1 (stereo not drawn) [Example 43]", "IC50 [nM]": 19.3}

----------
# EXPERIMENTAL TARGET: 5-HT2c (Homo sapiens, UniProt P28335)
# Construct: purchased Euroscreen/BioSignal Packard Inc
# Sequence (P28335 33-458): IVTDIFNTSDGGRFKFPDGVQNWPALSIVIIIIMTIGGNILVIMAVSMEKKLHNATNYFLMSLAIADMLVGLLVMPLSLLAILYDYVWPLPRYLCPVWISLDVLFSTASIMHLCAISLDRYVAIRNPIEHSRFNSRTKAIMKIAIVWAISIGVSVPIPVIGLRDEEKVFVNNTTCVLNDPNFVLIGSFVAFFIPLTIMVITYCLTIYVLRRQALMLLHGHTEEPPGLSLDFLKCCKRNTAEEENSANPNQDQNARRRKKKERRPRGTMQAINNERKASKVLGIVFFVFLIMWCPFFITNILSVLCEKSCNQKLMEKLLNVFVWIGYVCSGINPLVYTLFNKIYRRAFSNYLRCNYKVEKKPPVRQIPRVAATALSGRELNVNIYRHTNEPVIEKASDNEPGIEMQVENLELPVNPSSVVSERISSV
# ASSAY REMARKS: Radioligand binding, 5-HT2c ([3H]Mesulergine)
# STUDY CONDITIONS: Table 4; [3H]Mesulergine 1 nM; read-out: Binding affinity, IC50 (nM) 5-HT2c

{"COMPOUND": "CCN(CC)c1ccc(C2(C)C(=O)c3c(N4CCNCC4)cc(Cl)cc3N(Cc3ccccc3)C2=O)cc1 (stereo not shown) [Example 17]", "UNITS": "nM", "CENSORING OPERATOR": "=", "IC50": 9810}
{"COMPOUND": "CCNc1ccc([C@]2(C)C(=O)c3c(N4CCN(C)CC4)cc(Cl)cc3N(Cc3ccccc3)C2=O)cc1 (stereo in doubt) [Example 6]", "UNITS": "nM", "CENSORING OPERATOR": ">", "IC50": 1000}
{"COMPOUND": "COc1ccc(C2(C)C(=O)c3c(N4CCNCC4)cc(Cl)cc3N(Cc3cccc(Br)c3)C2=O)cc1 (stereo not shown) [Example 33]", "UNITS": "nM", "CENSORING OPERATOR": ">", "IC50": 1000}
{"COMPOUND": "CN1CCN(c2cc(Cl)cc3c2C(=O)C(C)(c2ccccc2)C(=O)N3Cc2ccccc2)CC1 (stereo not shown) [Example 11]", "UNITS": "nM", "CENSORING OPERATOR": "=", "IC50": 514}
{"COMPOUND": "CN1CCN(c2cc(Cl)cc3c2C(=O)C(C)(c2ccc(O)cc2)C(=O)N3Cc2cccc(N)c2)CC1 (stereo not shown) [Example 10]", "UNITS": "nM", "CENSORING OPERATOR": ">", "IC50": 10000}
{"COMPOUND": "COc1ccc(C2(C)C(=O)c3c(N4CCNCC4)cc(Cl)cc3N(CC3CCCCC3)C2=O)cc1 (stereo not shown) [Example 48]", "UNITS": "nM", "CENSORING OPERATOR": "=", "IC50": 8660}
{"COMPOUND": "COc1ccc(C2(C)C(=O)c3c(N4CCNCC4)cc(Cl)cc3N(Cc3nc4ccccc4[nH]3)C2=O)cc1 (stereo not shown) [Example 43]", "UNITS": "nM", "CENSORING OPERATOR": "=", "IC50": 7890}

----------
# EXPERIMENTAL TARGET: Human serotonin 5-HT6 receptor (Homo sapiens)
# Construct: made in house; host or cells: insect Sf21 cells (baculovirus vector BacPAK8)
# ASSAY REMARKS: [3H]LSD binding assay on cloned 5-HT6 receptor membranes
# STUDY CONDITIONS: Table 4; read-out: Binding affinity, IC50 (nM) 5-HT6
MEASURED ENDPOINT: log10 IC50 (log10 of the value in nM)

{"COMPOUND": "COc1ccc([C@@]2(C)C(=O)c3c(N4CCNCC4)cc(Cl)cc3N(Cc3ccccc3)C2=O)cc1 [Example 13-1]", "EXPERIMENTAL TARGET": "Human serotonin 5-HT6 receptor (Homo sapiens)", "log10 IC50": 0.15}
{"COMPOUND": "CC1(c2ccc(O)cc2)C(=O)c2c(N3CCNCC3)cc(Cl)cc2N(Cc2cccnc2)C1=O (stereo not drawn) [Example 38]", "EXPERIMENTAL TARGET": "Human serotonin 5-HT6 receptor (Homo sapiens)", "log10 IC50": 1.31}
{"COMPOUND": "CC1(c2ccc(O)cc2)C(=O)c2c(N3CCNCC3)cc(Cl)cc2N(Cc2ccc3ccccc3c2)C1=O (stereo not drawn) [Example 40]", "EXPERIMENTAL TARGET": "Human serotonin 5-HT6 receptor (Homo sapiens)", "log10 IC50": 1.26}
{"COMPOUND": "CCN(CC)c1ccc(C2(C)C(=O)c3c(N4CCNCC4)cc(Cl)cc3N(Cc3ccccc3)C2=O)cc1 (stereo not drawn) [Example 17]", "EXPERIMENTAL TARGET": "Human serotonin 5-HT6 receptor (Homo sapiens)", "log10 IC50": 1.33}
{"COMPOUND": "COc1ccc(C2(C)C(=O)c3c(N4CCNCC4)cc(Cl)cc3N(Cc3cccc(OC)c3)C2=O)cc1 (stereo not drawn) [Example 27]", "EXPERIMENTAL TARGET": "Human serotonin 5-HT6 receptor (Homo sapiens)", "log10 IC50": 0.36}
{"COMPOUND": "COc1cccc(C2(C)C(=O)c3c(N4CCNCC4)cc(Cl)cc3N(Cc3ccccc3)C2=O)c1 (stereo not drawn) [Example 50]", "EXPERIMENTAL TARGET": "Human serotonin 5-HT6 receptor (Homo sapiens)", "log10 IC50": 1.26}
{"COMPOUND": "CCNc1ccc([C@]2(C)C(=O)c3c(N4CCN(C)CC4)cc(Cl)cc3N(Cc3ccccc3)C2=O)cc1 (stereo in doubt) [Example 6]", "EXPERIMENTAL TARGET": "Human serotonin 5-HT6 receptor (Homo sapiens)", "log10 IC50": 0.53}
{"COMPOUND": "C[C@]1(c2ccc(O)cc2)C(=O)c2c(N3CCNCC3)cc(Cl)cc2N(Cc2ccccc2)C1=O [Example 14-1]", "EXPERIMENTAL TARGET": "Human serotonin 5-HT6 receptor (Homo sapiens)", "log10 IC50": 0.28}
{"COMPOUND": "COc1ccc(C2(C)C(=O)c3c(N4CCNCC4)cc(Cl)cc3N(Cc3ccccc3OC)C2=O)cc1 (stereo not drawn) [Example 29]", "EXPERIMENTAL TARGET": "Human serotonin 5-HT6 receptor (Homo sapiens)", "log10 IC50": 1.18}
{"COMPOUND": "COc1ccc(C2(C)C(=O)c3c(N4CCNCC4)cc(Cl)cc3N(Cc3ccccc3)C2=O)cc1 (racemic) [Example 13]", "EXPERIMENTAL TARGET": "Human serotonin 5-HT6 receptor (Homo sapiens)", "log10 IC50": -0.05}
{"COMPOUND": "CC1(c2ccc(O)cc2)C(=O)c2c(N3CCNCC3)cc(Cl)cc2N(Cc2ccccc2)C1=O (racemic) [Example 14]", "EXPERIMENTAL TARGET": "Human serotonin 5-HT6 receptor (Homo sapiens)", "log10 IC50": 0.00}
{"COMPOUND": "CC1(c2ccc(O)cc2)C(=O)c2c(N3CCNCC3)cc(Cl)cc2N(Cc2ccc(O)cc2)C1=O (stereo not drawn) [Example 32]", "EXPERIMENTAL TARGET": "Human serotonin 5-HT6 receptor (Homo sapiens)", "log10 IC50": 1.18}
{"COMPOUND": "CC1(c2ccc(O)cc2)C(=O)c2c(N3CCNCC3)cc(Cl)cc2N(Cc2cccc(O)c2)C1=O (stereo not drawn) [Example 28]", "EXPERIMENTAL TARGET": "Human serotonin 5-HT6 receptor (Homo sapiens)", "log10 IC50": 0.48}
{"COMPOUND": "COc1ccc(C2(C)C(=O)c3c(N4CCNCC4)cc(Cl)cc3N(Cc3ccccc3Br)C2=O)cc1 (stereo not drawn) [Example 35]", "EXPERIMENTAL TARGET": "Human serotonin 5-HT6 receptor (Homo sapiens)", "log10 IC50": 1.21}
{"COMPOUND": "CC1(c2ccc(I)cc2)C(=O)c2c(N3CCNCC3)cc(Cl)cc2N(Cc2ccccc2)C1=O (stereo not drawn) [Example 21]", "EXPERIMENTAL TARGET": "Human serotonin 5-HT6 receptor (Homo sapiens)", "log10 IC50": 0.84}
